Reported pIC50 values for a set of compounds
test.target: UniProtKB P56817
Sequence (P56817 46-501): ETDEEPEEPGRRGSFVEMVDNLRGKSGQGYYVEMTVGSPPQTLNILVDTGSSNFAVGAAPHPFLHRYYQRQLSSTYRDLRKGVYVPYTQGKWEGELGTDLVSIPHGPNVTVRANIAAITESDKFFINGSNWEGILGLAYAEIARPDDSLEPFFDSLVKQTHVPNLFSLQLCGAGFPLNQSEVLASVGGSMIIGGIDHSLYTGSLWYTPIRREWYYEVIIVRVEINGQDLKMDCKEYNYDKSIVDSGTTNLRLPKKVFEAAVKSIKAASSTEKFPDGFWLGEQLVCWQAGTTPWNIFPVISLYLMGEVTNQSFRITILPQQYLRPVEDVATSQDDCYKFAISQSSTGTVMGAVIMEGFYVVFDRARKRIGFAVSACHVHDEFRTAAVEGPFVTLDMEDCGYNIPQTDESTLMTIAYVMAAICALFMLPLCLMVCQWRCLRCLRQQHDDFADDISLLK
test.details: In vitro enzymatic BACE FRET assay
Format: biochemical
settings: average IC50, in vitro enzymatic BACE FRET assay; read-out: BACE1 FRET assay IC50
// scale note: pIC50 = -log10(conc_M); give the bare number

Sample records with pIC50:
CC1(C)C[C@@H]2[C@](C)(N=C(N)C(C)(C)S2(=O)=O)c2cc(Nc3nccc4cc(C#N)cnc34)ccc2O1 ... 8.52
COc1cnc(C(=O)Nc2ccc3c(c2)[C@@]2(C)N=C(N)C(C)(C)S(=O)(=O)[C@@]2(F)CCO3)cn1 ... 7.55
Cc1cc(C#CC2CC2)cnc1C(=O)Nc1ccc2c(c1)[C@@]1(C)N=C(N)C(C)(C)S(=O)(=O)[C@@H]1CCO2 ... 8.22

// switching to the query compound
Prompt: What value of measured pIC50 is listed for COCCOc1cnc2c(Nc3ccc4c(c3)[C@@]3(C)N=C(N)C(C)(C)S(=O)(=O)[C@@H]3C[C@H](C)O4)nccc2n1 ?
Completion: 8.15

Ref: patent US9309263B2
